- target or system: PI 3-kinase beta (Homo sapiens)
- Sequence (P42338 whole entry): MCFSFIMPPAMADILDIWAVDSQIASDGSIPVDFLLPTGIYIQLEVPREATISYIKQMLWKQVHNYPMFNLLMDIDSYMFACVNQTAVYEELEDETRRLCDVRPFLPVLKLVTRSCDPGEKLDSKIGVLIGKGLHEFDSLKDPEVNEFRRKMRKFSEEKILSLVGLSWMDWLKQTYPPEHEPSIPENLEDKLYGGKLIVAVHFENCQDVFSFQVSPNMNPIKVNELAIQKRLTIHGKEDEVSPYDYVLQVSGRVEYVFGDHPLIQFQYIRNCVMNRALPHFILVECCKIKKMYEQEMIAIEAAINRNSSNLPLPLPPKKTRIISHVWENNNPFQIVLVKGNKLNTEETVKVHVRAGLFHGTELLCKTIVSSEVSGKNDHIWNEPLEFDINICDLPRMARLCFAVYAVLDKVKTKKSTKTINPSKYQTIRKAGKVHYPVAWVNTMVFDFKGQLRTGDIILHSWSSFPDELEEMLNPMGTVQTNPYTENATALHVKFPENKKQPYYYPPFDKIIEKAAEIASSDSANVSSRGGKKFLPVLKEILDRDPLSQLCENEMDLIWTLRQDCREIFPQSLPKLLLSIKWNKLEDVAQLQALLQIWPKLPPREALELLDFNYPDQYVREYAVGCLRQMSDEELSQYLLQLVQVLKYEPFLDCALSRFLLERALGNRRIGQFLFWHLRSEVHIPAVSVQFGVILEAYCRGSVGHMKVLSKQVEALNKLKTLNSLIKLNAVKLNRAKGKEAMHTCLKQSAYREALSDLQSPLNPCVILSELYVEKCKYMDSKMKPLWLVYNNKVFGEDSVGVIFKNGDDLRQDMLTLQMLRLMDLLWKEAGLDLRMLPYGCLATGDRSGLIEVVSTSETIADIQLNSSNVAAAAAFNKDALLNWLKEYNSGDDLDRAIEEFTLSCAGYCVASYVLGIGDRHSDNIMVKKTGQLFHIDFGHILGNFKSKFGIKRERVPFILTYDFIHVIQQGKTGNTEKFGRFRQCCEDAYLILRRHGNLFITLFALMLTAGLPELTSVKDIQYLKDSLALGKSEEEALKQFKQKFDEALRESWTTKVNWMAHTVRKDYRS
- Sequence (P27986 461-568 partner): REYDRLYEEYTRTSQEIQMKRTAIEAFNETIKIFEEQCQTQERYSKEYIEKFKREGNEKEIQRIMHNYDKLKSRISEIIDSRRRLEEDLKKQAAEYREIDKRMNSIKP
- measurement description: Kinase Glo Luminescent Kinase Assay (Kglo), assay B
- Assay type: biochemical
- test settings: read-out: Assay B PI3Kβ IC50
pIC50: −log10 of the molar value.
Tick satisfied if pIC50 is 6 or greater. Tick not satisfied if pIC50 is less than 6.

INSERT INTO results (molecule, target_or_system, discrete_label) VALUES
  ('Cc1ccc(S(=O)(=O)NCC(C)(C)O)cc1-c1cnc(N)c(-c2nn(C)nc2C)n1 [Example 19]', 'PI 3-kinase beta (Homo sapiens)', 'satisfied'),
  ('COCCCNS(=O)(=O)c1ccc(C)c(-c2cnc(N)c(-c3ccnc(C)c3)n2)c1 [Example 129.11]', 'PI 3-kinase beta (Homo sapiens)', 'not satisfied'),
  ('CC(C)(O)CCNS(=O)(=O)c1ccc(Cl)c(-c2cnc(N)c(-n3cncn3)n2)c1 [Example 38]', 'PI 3-kinase beta (Homo sapiens)', 'not satisfied'),
  ('Cc1cn(-c2nc(-c3cc(S(=O)(=O)NCC(C)(C)O)ccc3C)cnc2N)c(C)n1 [Example 50]', 'PI 3-kinase beta (Homo sapiens)', 'not satisfied'),
  ('Cc1ccc(S(=O)(=O)NCCC(C)(C)O)cc1-c1cnc(N)c(-c2cnn(Cc3cccnc3)c2)n1 [Example 119.38]', 'PI 3-kinase beta (Homo sapiens)', 'not satisfied'),
  ('Cc1ccc(S(=O)(=O)NCC(C)(C)O)cc1-c1cnc(N)c(-c2cn(C)nn2)n1 [Example 81]', 'PI 3-kinase beta (Homo sapiens)', 'not satisfied');

---

- target or system: PI 3-kinase gamma (Homo sapiens)
- Sequence (P48736 whole entry): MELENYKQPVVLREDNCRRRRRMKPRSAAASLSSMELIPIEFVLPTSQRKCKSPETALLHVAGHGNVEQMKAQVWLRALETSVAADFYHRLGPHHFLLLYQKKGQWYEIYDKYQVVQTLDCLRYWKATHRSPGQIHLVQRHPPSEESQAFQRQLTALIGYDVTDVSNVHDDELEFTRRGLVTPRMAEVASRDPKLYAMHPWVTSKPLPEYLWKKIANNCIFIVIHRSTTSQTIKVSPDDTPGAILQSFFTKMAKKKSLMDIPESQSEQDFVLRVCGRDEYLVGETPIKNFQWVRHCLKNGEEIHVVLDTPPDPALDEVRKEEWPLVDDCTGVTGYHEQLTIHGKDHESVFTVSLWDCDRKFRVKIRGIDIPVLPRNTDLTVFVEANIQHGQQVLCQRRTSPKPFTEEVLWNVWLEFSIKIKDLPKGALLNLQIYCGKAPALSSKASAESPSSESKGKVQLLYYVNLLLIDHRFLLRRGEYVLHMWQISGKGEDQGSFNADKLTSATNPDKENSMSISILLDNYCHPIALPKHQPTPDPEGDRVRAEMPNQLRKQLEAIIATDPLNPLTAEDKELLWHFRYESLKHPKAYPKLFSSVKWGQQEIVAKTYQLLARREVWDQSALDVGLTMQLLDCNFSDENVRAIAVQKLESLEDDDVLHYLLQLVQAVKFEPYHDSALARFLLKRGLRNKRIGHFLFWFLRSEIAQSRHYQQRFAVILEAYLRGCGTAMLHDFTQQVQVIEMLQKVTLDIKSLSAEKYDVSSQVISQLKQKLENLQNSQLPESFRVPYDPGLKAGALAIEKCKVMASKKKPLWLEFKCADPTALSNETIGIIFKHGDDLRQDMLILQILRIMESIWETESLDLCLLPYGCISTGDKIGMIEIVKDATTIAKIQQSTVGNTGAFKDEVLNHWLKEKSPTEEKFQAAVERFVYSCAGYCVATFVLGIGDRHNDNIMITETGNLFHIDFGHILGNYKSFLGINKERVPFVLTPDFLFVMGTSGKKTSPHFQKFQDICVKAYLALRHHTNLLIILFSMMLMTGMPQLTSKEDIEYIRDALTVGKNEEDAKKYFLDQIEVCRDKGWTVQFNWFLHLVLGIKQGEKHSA
- measurement description: TR-FRET Adapta assay, assay E
- Type: biochemical
- test settings: read-out: Assay E PI3Kγ IC50
endpoint: log10 IC50 (log10 of the value in nM)

INSERT INTO assay_data (structure_as_smiles, target_or_system, meas_value) VALUES
  ('Cc1ccc(S(=O)(=O)NCCC(C)(C)O)cc1-c1cnc(N)c(-c2cnn(Cc3ccccn3)c2)n1', 'PI 3-kinase gamma (Homo sapiens)', 1.38),
  ('Cc1ccc(S(=O)(=O)NC[C@H]2C[C@@H](O)C2)cc1-c1cnc(N)c(-n2cncn2)n1', 'PI 3-kinase gamma (Homo sapiens)', 1.53),
  ('Cc1ccc(S(=O)(=O)NCCC(C)(C)O)cc1-c1cnc(N)c(-c2ccc(N3CCOCC3)nc2)n1', 'PI 3-kinase gamma (Homo sapiens)', 2.60),
  ('Cc1ncc(-c2nc(-c3cc(S(=O)(=O)NCC4(C)COC4)ccc3C)cnc2N)s1', 'PI 3-kinase gamma (Homo sapiens)', 0.60),
  ('Cc1ncn(-c2nc(-c3cc(S(=O)(=O)NCCC(C)(C)O)ccc3C)cnc2N)n1', 'PI 3-kinase gamma (Homo sapiens)', 1.34),
  ('Cc1cc(-c2nc(-c3cc(S(=O)(=O)N[C@H]4CC[C@H](O)CC4)ccc3C)cnc2N)ccn1', 'PI 3-kinase gamma (Homo sapiens)', 1.71),
  ('Cc1ccc(S(=O)(=O)NCCC(C)(C)O)cc1-c1cnc(N)c(-c2ccc(F)nc2)n1', 'PI 3-kinase gamma (Homo sapiens)', 2.39),
  ('Cc1ccc(S(=O)(=O)NCC2(O)CCCCC2)cc1-c1cnc(N)c(-n2cncn2)n1', 'PI 3-kinase gamma (Homo sapiens)', 2.43);

---

pIC50 listing for selected compounds.
- target or system: PI 3-kinase delta (Homo sapiens, UniProt O00329)
- Sequence (O00329 whole entry): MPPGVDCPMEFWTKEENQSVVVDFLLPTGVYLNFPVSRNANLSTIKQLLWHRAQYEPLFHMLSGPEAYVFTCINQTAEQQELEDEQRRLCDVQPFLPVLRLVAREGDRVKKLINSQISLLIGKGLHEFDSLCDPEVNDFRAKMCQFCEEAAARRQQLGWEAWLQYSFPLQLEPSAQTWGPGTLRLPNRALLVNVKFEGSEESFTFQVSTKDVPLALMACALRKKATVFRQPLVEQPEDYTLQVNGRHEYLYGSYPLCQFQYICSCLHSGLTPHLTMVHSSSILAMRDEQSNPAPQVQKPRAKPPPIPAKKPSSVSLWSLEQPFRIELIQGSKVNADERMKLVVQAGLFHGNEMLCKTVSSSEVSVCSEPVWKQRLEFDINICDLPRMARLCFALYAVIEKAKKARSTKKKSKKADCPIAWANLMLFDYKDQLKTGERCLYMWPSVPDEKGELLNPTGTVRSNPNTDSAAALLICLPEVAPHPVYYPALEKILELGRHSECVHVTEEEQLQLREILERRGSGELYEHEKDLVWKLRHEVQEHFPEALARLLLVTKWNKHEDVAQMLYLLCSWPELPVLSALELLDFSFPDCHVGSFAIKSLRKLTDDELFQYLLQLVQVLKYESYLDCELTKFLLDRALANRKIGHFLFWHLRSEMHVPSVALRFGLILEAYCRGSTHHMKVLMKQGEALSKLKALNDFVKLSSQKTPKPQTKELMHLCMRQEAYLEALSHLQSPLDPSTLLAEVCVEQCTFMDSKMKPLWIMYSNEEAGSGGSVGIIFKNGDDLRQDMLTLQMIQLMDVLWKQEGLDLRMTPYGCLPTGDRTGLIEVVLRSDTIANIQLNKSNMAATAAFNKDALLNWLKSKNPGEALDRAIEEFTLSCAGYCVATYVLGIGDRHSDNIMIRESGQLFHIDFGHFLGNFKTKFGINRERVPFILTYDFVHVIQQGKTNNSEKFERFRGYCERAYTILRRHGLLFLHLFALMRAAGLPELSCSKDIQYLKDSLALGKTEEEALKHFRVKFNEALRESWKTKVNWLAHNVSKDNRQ
- Sequence (Q63787 whole entry partner): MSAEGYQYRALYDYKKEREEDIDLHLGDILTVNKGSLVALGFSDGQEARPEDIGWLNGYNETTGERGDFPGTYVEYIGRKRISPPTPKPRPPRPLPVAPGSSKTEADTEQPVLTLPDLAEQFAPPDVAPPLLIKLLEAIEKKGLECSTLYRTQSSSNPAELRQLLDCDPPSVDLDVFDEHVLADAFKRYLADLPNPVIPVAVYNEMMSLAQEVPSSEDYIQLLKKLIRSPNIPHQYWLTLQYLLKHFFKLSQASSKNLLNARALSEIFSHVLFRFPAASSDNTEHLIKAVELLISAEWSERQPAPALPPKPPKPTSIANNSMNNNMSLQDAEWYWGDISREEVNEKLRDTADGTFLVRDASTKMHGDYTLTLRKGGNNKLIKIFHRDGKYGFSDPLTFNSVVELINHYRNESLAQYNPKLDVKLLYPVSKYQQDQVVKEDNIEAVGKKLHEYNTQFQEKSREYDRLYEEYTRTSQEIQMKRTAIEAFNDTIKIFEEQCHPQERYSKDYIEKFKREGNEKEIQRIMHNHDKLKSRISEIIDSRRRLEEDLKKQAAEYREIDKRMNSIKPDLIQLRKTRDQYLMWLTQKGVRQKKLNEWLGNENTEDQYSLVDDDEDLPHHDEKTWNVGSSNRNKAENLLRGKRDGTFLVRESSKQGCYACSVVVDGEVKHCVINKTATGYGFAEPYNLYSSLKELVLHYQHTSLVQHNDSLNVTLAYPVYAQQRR
- measurement description: Cellular assay J1, p-Akt (S473) in Rat-1 cells, Surefire format
- Assay type: cell-based
- test settings: non-asterisked data: version J1 (Surefire format), Rat-1 cells; read-out: Assay J PI3Kδ IC50
pIC50: −log10 of the molar value. Where a name gives a salt, the structure may show the parent alone.
endpoint: pIC50

INSERT INTO results (compound, target_or_system, endpoint, relation_operator, meas_value) VALUES
  ('Cc1ccc(S(=O)(=O)NCCC(C)(C)O)cc1-c1cnc(N)c(-c2cc(Cl)cnc2F)n1', 'PI 3-kinase delta (Homo sapiens, UniProt O00329)', 'pIC50', '=', 5.28),
  ('Cc1cc(-c2nc(-c3cc(S(=O)(=O)NCC4CCCOC4)ccc3C)cnc2N)ccn1 (stereo not drawn)', 'PI 3-kinase delta (Homo sapiens, UniProt O00329)', 'pIC50', '=', 5.53),
  ('Cc1ccc(S(=O)(=O)NCCC(F)(F)F)cc1-c1cnc(N)c(-n2cncn2)n1', 'PI 3-kinase delta (Homo sapiens, UniProt O00329)', 'pIC50', '=', 5.98),
  ('Cc1cc(F)c(S(=O)(=O)NCCCO)cc1-c1cnc(N)c(-c2cnn(C)c2)n1', 'PI 3-kinase delta (Homo sapiens, UniProt O00329)', 'pIC50', '=', 5.10),
  ('Cc1ccc(S(=O)(=O)NCCC(C)(C)O)cc1-c1cnc(N)c(-c2cnn(CC(F)(F)F)c2)n1', 'PI 3-kinase delta (Homo sapiens, UniProt O00329)', 'pIC50', '=', 5.92),
  ('CCN1CCC[C@@H]1CNS(=O)(=O)c1ccc(C)c(-c2cnc(N)c(-c3cn(C)nc3C)n2)c1 [Example 27, hydrochloride]', 'PI 3-kinase delta (Homo sapiens, UniProt O00329)', 'pIC50', '=', 5.99),
  ('Cc1ccc(S(=O)(=O)NCCC(C)(C)O)cc1-c1cnc(N)c(-c2cnn(Cc3ccccn3)c2)n1', 'PI 3-kinase delta (Homo sapiens, UniProt O00329)', 'pIC50', '=', 5.94),
  ('Cc1ccc(S(=O)(=O)NC2CC3(CC(O)C3)C2)cc1-c1cnc(N)c(-c2cn(C)nc2C)n1 (stereo not drawn) [Example 74]', 'PI 3-kinase delta (Homo sapiens, UniProt O00329)', 'pIC50', '=', 5.16),
  ('Cc1ccc(S(=O)(=O)NCC2COCCN2C)cc1-c1cnc(N)c(-c2cn(C)nc2C)n1 (stereo not drawn) [Example 128.2]', 'PI 3-kinase delta (Homo sapiens, UniProt O00329)', 'pIC50', '=', 5.80),
  ('Cc1ccc(S(=O)(=O)NOC(C)C)cc1-c1cnc(N)c(-n2cncn2)n1', 'PI 3-kinase delta (Homo sapiens, UniProt O00329)', 'pIC50', '=', 6.07),
  ('COC1(C)CN(S(=O)(=O)c2ccc(C)c(-c3cnc(N)c(-c4cn(C)nc4C)n3)c2)C1', 'PI 3-kinase delta (Homo sapiens, UniProt O00329)', 'pIC50', '=', 5.88),
  ('Cc1ncc(-c2nc(-c3cc(S(=O)(=O)N4CCNC(C(F)(F)F)C4)ccc3C)cnc2N)s1 (stereo not drawn)', 'PI 3-kinase delta (Homo sapiens, UniProt O00329)', 'pIC50', '=', 6.28),
  ('Cc1ccc(S(=O)(=O)N[C@H]2CC[C@H](O)CC2)cc1-c1cnc(N)c(-n2cncn2)n1', 'PI 3-kinase delta (Homo sapiens, UniProt O00329)', 'pIC50', '=', 5.84),
  ('CCN1CCC[C@@H]1CNS(=O)(=O)c1ccc(C)c(-c2cnc(N)c(-n3cncn3)n2)c1', 'PI 3-kinase delta (Homo sapiens, UniProt O00329)', 'pIC50', '=', 6.10),
  ('Cc1cncc(-c2nc(-c3cc(S(=O)(=O)NCCC(C)(C)O)ccc3C)cnc2N)c1', 'PI 3-kinase delta (Homo sapiens, UniProt O00329)', 'pIC50', '=', 5.23),
  ('Cc1ccc(S(=O)(=O)NC2CC3(CC(O)C3)C2)cc1-c1cnc(N)c(-n2cncn2)n1 (single isomer, unassigned) [Example 70b]', 'PI 3-kinase delta (Homo sapiens, UniProt O00329)', 'pIC50', '=', 5.40),
  ('CCOc1ccc(-c2nc(-c3cc(S(=O)(=O)NCCC(C)(C)O)ccc3C)cnc2N)cn1', 'PI 3-kinase delta (Homo sapiens, UniProt O00329)', 'pIC50', '=', 5.49),
  ('Cc1ccc(S(=O)(=O)NCC2(O)CCCC2)cc1-c1cnc(N)c(-n2cncn2)n1', 'PI 3-kinase delta (Homo sapiens, UniProt O00329)', 'pIC50', '<', 5.00),
  ('Cc1cc(-c2nc(-c3cc(S(=O)(=O)NCC4CCCO4)ccc3C)cnc2N)ccn1 (stereo not drawn)', 'PI 3-kinase delta (Homo sapiens, UniProt O00329)', 'pIC50', '=', 5.71),
  ('Cc1ccc(S(=O)(=O)NCCC(O)C(F)(F)F)cc1-c1cnc(N)c(-c2cnn(C)c2)n1 (stereo not drawn)', 'PI 3-kinase delta (Homo sapiens, UniProt O00329)', 'pIC50', '=', 5.40),
  ('Cc1ccc(S(=O)(=O)NCC(C)(C)CO)cc1-c1cnc(N)c(-n2cncn2)n1', 'PI 3-kinase delta (Homo sapiens, UniProt O00329)', 'pIC50', '=', 5.70),
  ('CCN1CCC[C@@H]1CNS(=O)(=O)c1ccc(C)c(-c2cnc(N)c(-c3cnc(C)s3)n2)c1', 'PI 3-kinase delta (Homo sapiens, UniProt O00329)', 'pIC50', '>', 8.52),
  ('Cc1ccc(S(=O)(=O)NCC(C)(C)O)cc1-c1cnc(N)c(-c2cnn(CC(F)(F)F)n2)n1', 'PI 3-kinase delta (Homo sapiens, UniProt O00329)', 'pIC50', '=', 6.36),
  ('Cc1ccc(S(=O)(=O)NCCC(C)(C)O)cc1-c1cnc(N)c(-c2ccncc2)n1', 'PI 3-kinase delta (Homo sapiens, UniProt O00329)', 'pIC50', '=', 6.04),
  ('Cc1ccc(S(=O)(=O)N[C@H]2CC[C@@](C)(O)CC2)cc1-c1cnc(N)c(-n2cncn2)n1 [Example 69b]', 'PI 3-kinase delta (Homo sapiens, UniProt O00329)', 'pIC50', '=', 5.29),
  ('Cc1noc(-c2nc(-c3cc(S(=O)(=O)N[C@H]4CC[C@H](O)CC4)ccc3C)cnc2N)n1', 'PI 3-kinase delta (Homo sapiens, UniProt O00329)', 'pIC50', '=', 5.97),
  ('Cc1ccc(S(=O)(=O)N[C@H]2CC[C@H](O)CC2)cc1-c1cnc(N)c(-c2ccnc(F)c2)n1', 'PI 3-kinase delta (Homo sapiens, UniProt O00329)', 'pIC50', '=', 5.89),
  ('Cc1nnc(-c2nc(-c3cc(S(=O)(=O)N[C@H]4CC[C@H](O)CC4)ccc3C)cnc2N)o1', 'PI 3-kinase delta (Homo sapiens, UniProt O00329)', 'pIC50', '=', 5.13),
  ('Cc1ccc(S(=O)(=O)NCCC(C)(C)O)cc1-c1cnc(N)c(-c2ccc(N3CCOCC3)nc2)n1', 'PI 3-kinase delta (Homo sapiens, UniProt O00329)', 'pIC50', '=', 5.13),
  ('Cc1cc(-c2nc(-c3cc(S(=O)(=O)NCC4CCOC4)ccc3C)cnc2N)ccn1 (stereo not drawn)', 'PI 3-kinase delta (Homo sapiens, UniProt O00329)', 'pIC50', '=', 5.25);
